Source: patent US20260258115A1

target: RSV postfusion F (postF), F deltaFP (respiratory syncytial virus, UniProt P03420 26-513); experiment: BLI, IgG on sensor, 100 nM antigen
resultType: pKd
Schema: pKd number; meaning minus log10 of the concentration expressed in molar units.

Some binders with known pKd results, for comparison:
INSERT INTO assay_data (binder, resulttype, recordedresult) VALUES
  ('ADI-41429 (antibody, V domains shown, IgG1; also called Ab 714) VH: QVQLVQSGAEVKKPGSSVKVSCKASGGTFSSYAISWVRQAPGQGLEWMGGIIPIFGTVNYAQKFPGRVTITADESTSTAYMELSSLRSEDTAIYYCARDSPSYTGSLLFSQYYYGMDVWGQGTTVTVSS VL: QPVLTQPASVSGSPGQSITISCTGTSSDVGGYDYVSWYQHHPGKAPKLMIYEVSNRPSGVSNRFSGSKSGNTASLTISGLQAEDEADYYCSSFTTSSPRVFGTGTKLTVL', 'pKd', 9.00),
  ('ADI-41365 (antibody, V domains shown, IgG1) VH: EVQLVESGGGLVKPGGSLRLSCATSGFTFSDYYMTWIRQAPGKGLEWVSYISSSGGYTNYADSVRGRFTISRDNAKRSLYLQMNSLRAEDTAVYYCARVEFSSGDVPSLFDSWGQGTLVTVSS VL: QSVLTQPPSVSGAPGQRVTISCTGSSSNLGAGYHVHWYQQFPGTAPKPLIYGNTNRPSGVPDRFSGSKSGTSASLAITGVQAEDEADYYCQSYDYSLSGWVFGGGTKLTVL', 'pKd', 8.65);

Shift focus to the following entry.
Bench note: what pKd did ADI-41374 (antibody, V domains shown, IgG1; also called Ab 671) VH: QVQLVQSGAEVKKPGSSVKVSCKASGGTFSNHAIDWVRQAPGQGLEWMGRIIPMVGLATYTRKFQGRVTISVDKSTSTAYMELSSLISDDTAVYYCARRTPEMAWGYWGQGTTVTVSS VL: DIVMTQTPSSLSASVGDRVTITCQASQDIRYYVNWYQQKPGKAPKLLIYDASTLETGVPSRFSGRGSGTDFTLIISSLQPEDIATYYCQQYGDLPTFGQGTRLEIK show?
9.43
